Reference for the values: paper PMC4868737

Molecular target: AR W741C (Homo sapiens, UniProt P10275, W742C)
Sequence (P10275 1-920 W742C): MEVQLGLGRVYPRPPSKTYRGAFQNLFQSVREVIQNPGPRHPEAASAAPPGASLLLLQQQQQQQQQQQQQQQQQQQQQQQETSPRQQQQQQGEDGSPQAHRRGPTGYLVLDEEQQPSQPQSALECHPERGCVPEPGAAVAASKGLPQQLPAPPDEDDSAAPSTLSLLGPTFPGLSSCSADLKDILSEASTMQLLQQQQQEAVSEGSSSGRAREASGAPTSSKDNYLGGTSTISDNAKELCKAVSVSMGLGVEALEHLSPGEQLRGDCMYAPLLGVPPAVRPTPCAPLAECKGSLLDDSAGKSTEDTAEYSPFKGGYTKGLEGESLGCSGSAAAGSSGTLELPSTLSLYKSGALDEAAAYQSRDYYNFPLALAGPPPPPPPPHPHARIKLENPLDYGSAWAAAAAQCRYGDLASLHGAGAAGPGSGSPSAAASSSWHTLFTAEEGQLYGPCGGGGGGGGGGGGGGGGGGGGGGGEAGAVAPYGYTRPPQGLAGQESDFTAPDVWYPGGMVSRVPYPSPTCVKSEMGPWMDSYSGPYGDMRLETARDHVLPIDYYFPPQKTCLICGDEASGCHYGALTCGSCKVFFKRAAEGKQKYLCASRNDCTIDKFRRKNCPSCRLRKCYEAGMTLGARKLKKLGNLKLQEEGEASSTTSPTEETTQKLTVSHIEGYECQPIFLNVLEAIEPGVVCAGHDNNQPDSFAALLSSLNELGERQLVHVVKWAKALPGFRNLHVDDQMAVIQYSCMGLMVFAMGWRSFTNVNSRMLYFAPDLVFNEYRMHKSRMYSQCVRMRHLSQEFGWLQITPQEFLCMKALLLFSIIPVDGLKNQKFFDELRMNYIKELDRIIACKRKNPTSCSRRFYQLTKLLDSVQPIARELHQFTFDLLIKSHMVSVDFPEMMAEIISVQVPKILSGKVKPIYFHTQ
Test: cell-based
Settings: IC50 (antagonistic activity), R1881 1 nM
Reported Metric: pIC50
API: returns pIC50 as number; meaning -log10 of concentration in mol/L.

Please give the measured pIC50 for this compound: `CC(C)(O)COc1ccc(CN2C(=S)N(c3ccc(C#N)c(C(F)(F)F)c3)C(=O)C2(C)C)cn1` 6.72

----------
target: AR V715M (Homo sapiens, UniProt P10275, V716M); assay: cell-based; details: IC50 (antagonistic activity), R1881 0.1 nM
Reported Metric: IC50

Form field: reported IC50 of `CC(C)(O)COc1ccc(CN2C(=S)N(c3ccc(C#N)c(C(F)(F)F)c3)C(=O)C2(C)C)cn1` 52 nM

----------
Target: AR F876L (Homo sapiens, UniProt P10275, F877L)
Sequence (P10275 1-920 F877L): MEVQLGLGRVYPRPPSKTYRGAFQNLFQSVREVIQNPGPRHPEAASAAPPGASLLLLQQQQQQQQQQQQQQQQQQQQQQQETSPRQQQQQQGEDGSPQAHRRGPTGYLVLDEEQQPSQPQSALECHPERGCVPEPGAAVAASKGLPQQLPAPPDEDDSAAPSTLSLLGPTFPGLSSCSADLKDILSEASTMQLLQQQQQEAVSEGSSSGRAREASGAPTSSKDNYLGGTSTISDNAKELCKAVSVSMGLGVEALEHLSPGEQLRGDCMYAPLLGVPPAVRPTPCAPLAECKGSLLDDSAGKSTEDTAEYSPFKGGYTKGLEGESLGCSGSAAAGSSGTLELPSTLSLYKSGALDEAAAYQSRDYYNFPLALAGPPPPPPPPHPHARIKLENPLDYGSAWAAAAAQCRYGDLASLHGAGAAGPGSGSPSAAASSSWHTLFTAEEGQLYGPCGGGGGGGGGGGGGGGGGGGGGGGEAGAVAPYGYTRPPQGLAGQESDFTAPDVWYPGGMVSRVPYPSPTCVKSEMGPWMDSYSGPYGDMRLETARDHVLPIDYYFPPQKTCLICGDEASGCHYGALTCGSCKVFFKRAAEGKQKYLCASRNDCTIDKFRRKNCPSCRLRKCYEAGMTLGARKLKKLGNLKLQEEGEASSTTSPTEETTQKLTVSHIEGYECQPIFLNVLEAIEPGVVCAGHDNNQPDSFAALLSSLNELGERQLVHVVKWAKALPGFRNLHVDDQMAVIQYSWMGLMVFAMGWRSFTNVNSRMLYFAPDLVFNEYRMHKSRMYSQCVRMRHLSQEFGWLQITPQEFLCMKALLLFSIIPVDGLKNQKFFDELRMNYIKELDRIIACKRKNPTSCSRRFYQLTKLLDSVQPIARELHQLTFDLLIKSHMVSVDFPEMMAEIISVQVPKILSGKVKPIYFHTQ
Test: cell-based
Conditions: IC50 (antagonistic activity), R1881 1 nM
Reported Metric: pIC50
The scale used: pIC50 is minus the common logarithm of the concentration in molar units.

Which pIC50 reading was recorded for the compound CC(C)(O)COc1ccc(CN2C(=S)N(c3ccc(C#N)c(C(F)(F)F)c3)C(=O)C2(C)C)cn1 [BAY 1024767] ? 6.53
